Data origin: ChEMBL document CHEMBL2440001

# study system: Beta-secretase 1 (Homo sapiens, UniProt P56817)
# Sequence (P56817 whole entry): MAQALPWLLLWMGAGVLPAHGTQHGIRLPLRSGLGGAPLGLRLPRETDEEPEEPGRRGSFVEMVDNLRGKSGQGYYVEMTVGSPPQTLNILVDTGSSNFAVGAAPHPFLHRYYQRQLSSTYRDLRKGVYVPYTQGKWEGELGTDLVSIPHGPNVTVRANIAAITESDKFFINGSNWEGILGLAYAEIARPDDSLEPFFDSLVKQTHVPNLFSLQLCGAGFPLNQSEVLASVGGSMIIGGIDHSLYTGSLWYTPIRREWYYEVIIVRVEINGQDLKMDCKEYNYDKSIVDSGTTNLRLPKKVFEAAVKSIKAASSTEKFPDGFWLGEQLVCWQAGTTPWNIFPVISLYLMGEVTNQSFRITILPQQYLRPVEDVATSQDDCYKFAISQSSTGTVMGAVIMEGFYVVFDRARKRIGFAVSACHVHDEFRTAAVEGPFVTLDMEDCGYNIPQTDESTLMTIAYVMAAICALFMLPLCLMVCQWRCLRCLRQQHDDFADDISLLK
# protocol: Inhibition of recombinant human BACE-1 using SEVNLDAEFK as substrate at 50 uM after 90 mins by FRET assay
Measured inhibition, listed per entry.

{"columns": ["item smiles", "inhibition"],
 "data": [
  ["CCOc1ccc2nc(NC(=O)C3=C(C)NC(C)=C(C(=O)Nc4nc5ccc(OCC)cc5s4)C3c3cccc([N+](=O)[O-])c3)sc2c1", "94%"],
  ["CC1=C(C(=O)Nc2nc(C)cs2)C(c2cccc([N+](=O)[O-])c2)C(C(=O)Nc2nc(C)cs2)=C(C)N1", "70.4%"],
  ["CC1=C(C(=O)Nc2nc(C)cs2)C(c2ccc([N+](=O)[O-])cc2)C(C(=O)Nc2nc(C)cs2)=C(C)N1", "88%"],
  ["CC1=C(C(=O)Nc2cc(C)on2)C(c2ccc[nH]2)C(C(=O)Nc2cc(C)on2)=C(C)N1", "57.4%"],
  ["CC1=C(C(=O)Nc2nccs2)C(c2ccc([N+](=O)[O-])cc2)C(C(=O)Nc2nccs2)=C(C)N1", "46.8%"]
]}
